Can you tell me Reaction product of Alk3p identified by GC-MS (first product peak) for the items I'm about to list?
# Test system: ALK3 (Alk3p, cytochrome P450 CYP52)
# protocol-text: In vitro enzymatic assay: conversion of radiolabeled fatty acids by microsomes of S. cerevisiae WAT11 expressing ALK3 (TLC, GC-MS)
# recorded-conditions: incubation with Alk3p microsomes, NADPH, GC-MS of methylated/TMS derivatives

Known Reaction product of Alk3p identified by GC-MS (first product peak) results, listed for orientation:
| molecule | measurement |
| --- | --- |
| CCCCCCCC/C=C\CCCCCCCC(=O)O [C18:1, oleic acid] | 18-hydroxyoleic acid derivative |
| CCCCCCCCCCCC(=O)O [C12:0, lauric acid] | 12-hydroxylauric acid derivative |
| CCCCC/C=C\C/C=C\CCCCCCCC(=O)O [C18:2, linoleic acid] | 18-hydroxylinoleic acid derivative |

Which Reaction product of Alk3p identified by GC-MS (first product peak) reading was recorded for the molecule CCCCCCCCCCCCCCCCCC(=O)O [C18:0, stearic acid] ?
18-hydroxystearic acid derivative
